Just for reference, patent US8389555B2 is where these values come from.

# Tested System: human dopamine D3 receptors (Homo sapiens, UniProt P35462)
# Construct: expressed in transfected cells
# Sequence (P35462 whole entry): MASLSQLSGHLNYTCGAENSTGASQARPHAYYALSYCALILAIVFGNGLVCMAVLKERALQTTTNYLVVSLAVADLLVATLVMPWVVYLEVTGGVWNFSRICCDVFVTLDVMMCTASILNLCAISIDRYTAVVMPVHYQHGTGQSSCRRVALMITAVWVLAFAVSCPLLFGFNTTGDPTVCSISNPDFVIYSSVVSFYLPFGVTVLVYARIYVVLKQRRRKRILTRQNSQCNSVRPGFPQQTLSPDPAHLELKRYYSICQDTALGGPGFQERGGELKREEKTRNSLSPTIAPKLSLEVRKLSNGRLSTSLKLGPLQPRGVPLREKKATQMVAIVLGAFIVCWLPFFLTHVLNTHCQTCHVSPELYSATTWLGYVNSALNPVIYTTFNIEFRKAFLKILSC
# Experimental Protocol: Dopamine D3 receptor binding assay ([3H]spiperone, CHO cell membranes)
# Measurement Context: ratio of Ki(D2) to Ki(D3)
Measurement Type: Selectivity Ki(D2)/Ki(D3)
// no unit string in output, number only

CCCN(CCCCNC(=O)c1cnc(-c2ccc(Cl)cc2)s1)C1CCc2ncsc2C1 (stereo not shown)
30
CCCN(CCCCC(=O)Nc1ccc2ccccc2c1)C1CCc2ncsc2C1 (stereo not shown)
542

// Selectivity Ki(D2)/Ki(D3) lookup, compound = CCCN(CCN1CCN(C(=O)c2ccccc2)CC1)C1CCc2ncsc2C1 (stereo not shown) , result: 192

// Selectivity Ki(D2)/Ki(D3) lookup, compound = CCCN(CCCCNC(=O)c1cc2ccccc2s1)C1CCc2ncsc2C1 (stereo not shown) , result: 141
